What follows is a record of Ki for UniProt:P31645.
Sequence (P31645 whole entry): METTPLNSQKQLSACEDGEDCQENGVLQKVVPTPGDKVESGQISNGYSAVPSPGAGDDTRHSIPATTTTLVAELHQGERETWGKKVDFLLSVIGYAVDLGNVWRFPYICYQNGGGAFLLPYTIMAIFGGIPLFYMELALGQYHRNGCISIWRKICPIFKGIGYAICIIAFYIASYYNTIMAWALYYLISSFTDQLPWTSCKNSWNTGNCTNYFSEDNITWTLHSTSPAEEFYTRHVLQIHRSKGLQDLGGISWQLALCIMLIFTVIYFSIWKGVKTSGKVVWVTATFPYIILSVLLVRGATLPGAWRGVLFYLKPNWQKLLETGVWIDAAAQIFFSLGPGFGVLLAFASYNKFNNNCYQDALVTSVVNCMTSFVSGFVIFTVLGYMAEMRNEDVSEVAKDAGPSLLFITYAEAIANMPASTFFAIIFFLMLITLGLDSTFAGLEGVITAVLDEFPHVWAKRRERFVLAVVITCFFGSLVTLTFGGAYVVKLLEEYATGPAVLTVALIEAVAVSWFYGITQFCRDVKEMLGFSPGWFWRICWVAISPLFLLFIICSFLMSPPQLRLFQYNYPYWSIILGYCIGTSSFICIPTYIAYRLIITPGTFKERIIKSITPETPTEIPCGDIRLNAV
ENDPOINT: Ki (µM)

[[record]]
compound = "N[C@H]1CCN(c2nc(-c3c(F)cccc3F)c3ccccc3n2)C1 [Example 96]"
recorded_measurement = 0.0708

[[record]]
compound = "Fc1ccc(-c2nc(N3CC[C@@H]4CNC[C@@H]43)nc3cc(F)ccc23)c(F)c1 [Example 142]"
recorded_measurement = 0.0914

[[record]]
compound = "C[C@H]1CNCCN1c1nc(-c2ccccc2)c2ccc(F)cc2n1 [Example 106]"
recorded_measurement = 0.0497


P: Fc1cc(F)cc(-c2nc(N3CCNCC3)nc3ccccc23)c1 [Example 126]
Q: CNC1CCN(c2nc(-c3c(F)cccc3F)c3ccccc3n2)C1 (stereo not shown) [Example 149]
R: C[C@@H]1CNCCN1c1nc(-c2c(F)cccc2F)c2ccc(F)cc2n1 [Example 104]
q: Rank by Ki (largest to smallest). In plain terms: list the labels in the order you were asked to.
a: Q, P, R
(Q: 1.62 µM, P: 0.107 µM, R: 0.0276 µM)

P: Fc1ccc2c(-c3nccs3)nc(N3CCNCC3)nc2c1 [Example 135]
Q: CNC1CCN(c2nc(-c3cccc(F)c3F)c3ccccc3n2)C1 (stereo not shown) [Example 157]
R: N[C@H]1CCN(c2nc(-c3c(F)cccc3F)c3ccc(F)cc3n2)C1 [Example 94]
q: Reorder the items by Ki, least to greatest. In plain terms: list the labels in the order you were asked to.
a: R, P, Q
(R: 0.0157 µM, P: 0.313 µM, Q: 4.25 µM)
